- System: Staphylococcus aureus
- PROTOCOL: MIC, broth-dilution microtiter test (Table VII)
- Format: cell-based
- TEST PARAMETERS: Staphylococcus aureus
READOUT NAME: MIC
// unit must come after the numeric part

Use the examples below as a reference point.
{"columns": ["MOLECULE", "TARGET SYSTEM", "MIC"],
 "data": [
  ["CCC1OC(=O)CC(O)C(C)C(OC2OC(C)C(O)C(N(C)C)C2O)C(CC=O)CC(C)C(=O)C=CC(C)(OC)C2CC12 (stereo not drawn) [Compound 17]", "Staphylococcus aureus", "3.12 µg/mL"],
  ["CCC1OC(=O)CC(O)C(C)C(OC2OC(C)C(O)C(N(C)C)C2O)C(CC=O)CC(C)C(=O)C=CC(C)=CC1CNC(=O)Cc1ccccc1 (stereo not drawn) [Compound 10, 23-Deoxy-23-N-(phenylacetyl)amino-OMT]", "Staphylococcus aureus", "0.78 µg/mL"]
]}

Identify MIC associated with the molecule CCC1OC(=O)CC(O)C(C)C(OC2OC(C)C(O)C(N(C)C)C2OC(C)=O)C(CC=O)CC(C)C(=O)C=CC(C)=CC1C[n+]1ccccc1 (stereo not drawn) [Compound 1]
50 µg/mL
